B1: 5KPH (parent)
chain: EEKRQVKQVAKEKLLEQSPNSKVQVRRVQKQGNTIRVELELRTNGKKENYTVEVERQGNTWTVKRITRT

Variants of: B1
protocol.notes: folding stability dG (cDNA display proteolysis); higher = more stable
particulars: PBS, room temperature
value.kind: folding stability dG (kcal/mol)
Answers are plain numbers, in kcal/mol.

G45Y = 3.55
Q24I = 4.3
T69D = 3.73
Q57E = 4.17
E48M = 3.55

Please give folding stability dG, item by item, for the list that follows.
1. E55V
2. E1V
3. G45V

4.08
3.38
2.85

Please give folding stability dG, item by item, for the list that follows.
1. G32Y
2. E48Y
3. S21R
4. V28H
5. P19M
6. G32W

3.13
3.75
2.18
2.16
2.71
3.21

Please give folding stability dG, item by item, for the list that follows.
1. E55P
2. E1H
3. K22H
4. V25Q
5. V25L
6. E1Q

[-0.38, 3.61, 3.91, 1.67, 2.91, 3.64]
